Value source: patent US7812022B2

Would you mind telling me the reported IC50 of each entry?
# System: BT474 and HN5 tumor cell lines
# TEST PROTOCOL: Methylene blue growth inhibition assay (cellular Method A)
# Assay type: cell-based, Human
# CONDITION DESCRIPTION: Homo sapiens, BT-474, 72 h, 3 days, read-out: Activity (Method): growth inhibition IC50 class

Example cases with answers are listed next.
O=C(Nc1cccc(-c2nn3ccccc3c2-c2ccnc(Nc3ccccc3)n2)c1)c1c(F)cccc1F [Example 34]    < 100 nM
N#Cc1cc(Nc2nccc(-c3c(-c4cccc(NC(=O)c5c(F)cccc5F)c4)nn4ccccc34)n2)ccc1-n1cccc1 [Example 90]    100 to 1000 nM

Query: State the recorded IC50 for this entry: CN(C)C1Cc2ccc(Nc3nccc(-c4c(-c5cccc(NC(=O)c6c(F)cccc6F)c5)nn5ccccc45)n3)cc2C1 (stereo not drawn) [Example 176]
Result: < 100 nM
